tested on: MILI (PIWIL2) piRISC loaded with piRNA #1 (26 nt); assay: pre-steady-state target cleavage rate (min^-1); guide: piRNA #1 5'p-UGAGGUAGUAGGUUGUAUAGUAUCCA; higher = faster piRNA-guided slicing of the target; details: auxiliary factor: 500 nM mouse GTSF1;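 note: 1 nM active piRISC with 0.1 nM target library at 33 °C single turnover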
If the reported pre-steady-state target cleavage rate equals or exceeds 0.1, assign class 1. If not, assign class 0.

Query block: In plain terms: is recorded pre-steady-state target cleavage rate at least 0.1 for GGAGACCUAUGAUAUGAACCUACUACGCUCA ?
Result block: class 0

Query block: Is the recorded value of pre-steady-state target cleavage rate equal to or greater than 0.1 for this sequence? GGAGAGGAUACUAUACAACCUACUACCUA
Result block: class 1

Query block: Is pre-steady-state target cleavage rate at least 0.1? Consider GGAGACCUUACUAUAGAUCCUACUACCUCA
Result block: class 1

Query block: Quick check: does GGAGAGGAUUCUAUACAACCUACUACCACA have pre-steady-state target cleavage rate greater than or equal to 0.1?
Result block: class 1

Query block: Record GGAGACCUAUGUAUACAACCUACUACCUCA [g2:g19:cont:t1A] ; criterion: pre-steady-state target cleavage rate no lower than 0.1. Met?
Result block: class 0

----------
test system: MILI (PIWIL2) piRISC loaded with L1MC piRNA (26 nt); test: pre-steady-state target cleavage rate (min^-1); guide: L1MC piRNA 5'p-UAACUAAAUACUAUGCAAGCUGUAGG; higher = faster piRNA-guided slicing of the target; settings: auxiliary factor: 500 nM mouse GTSF1;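 note: 1 nM active piRISC with 0.1 nM target library at 33 °C single turnover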
Reported pre-steady-state target cleavage rate by item:
Reply with just the number.

# Sequence chain, pre-steady-state target cleavage rate
rows = [
    ("UCCUGGAUGAGCUUGCAUAGUUUUUUGUUA", 0.0139),
]

Query block: Given the entry UCCUCCUACUGCUUGGAUAGUAUUUAGUUA , report its measured pre-steady-state target cleavage rate.
Result block: 0.223

Query block: Entry UCCUGGAUGUCCUUGCAUGGUAUUUAGUUA has what pre-steady-state target cleavage rate?
Result block: 0.0346

Query block: Need pre-steady-state target cleavage rate, item UCCUCCUACUGCUUGCAUAGUAUUAAGUUA
Result block: 0.15

Query block: Reported pre-steady-state target cleavage rate for UCCUGGAACAGCUUGGUAAGUAUUUAGUUA : what is it?
Result block: 0.115

----------
system: EfPiwi piRISC loaded with L1MC piRNA (26 nt); assay: pre-steady-state target cleavage rate (min^-1); auxiliary factor: 500 nM Ephydatia muelleri Gtsf1; guide: L1MC piRNA 5'p-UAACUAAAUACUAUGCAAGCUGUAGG; MIWI and MILI are mouse PIWI proteins and EfPiwi is from a freshwater sponge; tags in brackets are library labels; higher = faster piRNA-guided slicing of the target
Short version: pre-steady-state target cleavage rate at least 0.007 is true (1), less is false (0).

# Sequence chain, Class name
data = [
    ("UCCUGGAACAGCUUGCAGAGUAUUUAGUUA", "true (1)"),
    ("UCCUGCUACAGCAUGCAUAGUAUUUAGUAA", "false (0)"),
    ("UCCUGGAUCAGCUUGCAUAGUAUUGAGUUA", "false (0)"),
    ("UCCUCCUACAGGAAGCAUAGUAUUUAGUAA", "false (0)"),
]

Let's switch to this sequence now.
Query block: Has UCCUCCUACUGCUUCCAUAGUAUUUAGUUA a recorded pre-steady-state target cleavage rate greater than or equal to 0.007?
Result block: false (0)
